These data points were gathered from ChEMBL document CHEMBL4425117.

# methodNotes: Oral bioavailability in rat at 15 mg/kg
# Type: ADME, organism-based
# particulars: in vivo
assayMetric: bioavailability

Kindly note the recorded bioavailability for Cc1cc2c(cc1CC(=O)c1sccc1S(=O)(=O)Nc1onc(C)c1Cl)OCO2 , which is 60 to 100%

###

# target: Endothelin-1 receptor (Homo sapiens, UniProt P25101)
# methodNotes: Displacement of 125I-ET1 from human placenta cell membrane ETA receptor expressed in Baculovirus-infected insect cells
Please respond with reported IC50 for every item in the list.
Answers are plain numbers, in nM.

Below, each entry is followed by its recorded IC50 result.
{"smi": "COc1ccccc1Oc1c(NS(=O)(=O)c2ccc(C(C)C)cc2)nc(C(F)(F)F)nc1OCCO", "assayMetric": "IC50", "observedResult": 50}
{"smi": "COc1ccccc1Cc1c(NS(=O)(=O)c2ccc(C(C)(C)C)cc2)ncnc1OCCO", "assayMetric": "IC50", "observedResult": 2000}
{"smi": "COc1ccc(Cl)c(Oc2c(NS(=O)(=O)c3ccc(C(C)(C)C)cc3)nc(N3CCOCC3)nc2OCCO)c1", "assayMetric": "IC50", "observedResult": 35}
{"smi": "COc1ccccc1Oc1c(NS(=O)(=O)c2ccc(C(C)C)cn2)nc(-c2ccncc2)nc1OC", "assayMetric": "IC50", "observedResult": 1.4}

We now examine a further molecule.
Record Cc1ccc(-c2c(NS(=O)(=O)c3ccc(C(C)(C)C)cc3)ncnc2OCCO)cc1 has Endothelin-1 receptor (Homo sapiens, UniProt P25101) IC50 equal to 1000

###

# target: Endothelin receptor type B (Homo sapiens)
# Sequence (P24530 whole entry): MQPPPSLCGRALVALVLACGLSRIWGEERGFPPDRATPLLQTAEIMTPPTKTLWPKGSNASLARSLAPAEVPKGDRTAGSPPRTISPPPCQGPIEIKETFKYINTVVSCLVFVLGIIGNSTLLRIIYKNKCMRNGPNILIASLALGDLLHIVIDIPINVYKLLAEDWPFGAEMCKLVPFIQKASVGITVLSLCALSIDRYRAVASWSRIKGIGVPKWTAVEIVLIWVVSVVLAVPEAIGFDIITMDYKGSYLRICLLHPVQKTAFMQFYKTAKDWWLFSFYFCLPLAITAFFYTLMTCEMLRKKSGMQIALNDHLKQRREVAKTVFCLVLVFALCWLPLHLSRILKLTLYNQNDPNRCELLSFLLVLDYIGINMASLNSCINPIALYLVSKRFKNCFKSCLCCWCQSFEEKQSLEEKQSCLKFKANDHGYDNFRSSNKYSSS
# methodNotes: Antagonist activity at ETB receptor (unknown origin) in presence of ET1
assayMetric: IC50
Please format your answer as a value with the unit trailing.

Kindly note the recorded IC50 for COc1ccccc1Oc1c(NS(=O)(=O)c2ccc(C)cn2)nc(-c2ccncc2)nc1OC , which is 1200 nM

###

# target: Endothelin receptor type B (Rattus norvegicus, UniProt P21451)
# Sequence (P21451 whole entry): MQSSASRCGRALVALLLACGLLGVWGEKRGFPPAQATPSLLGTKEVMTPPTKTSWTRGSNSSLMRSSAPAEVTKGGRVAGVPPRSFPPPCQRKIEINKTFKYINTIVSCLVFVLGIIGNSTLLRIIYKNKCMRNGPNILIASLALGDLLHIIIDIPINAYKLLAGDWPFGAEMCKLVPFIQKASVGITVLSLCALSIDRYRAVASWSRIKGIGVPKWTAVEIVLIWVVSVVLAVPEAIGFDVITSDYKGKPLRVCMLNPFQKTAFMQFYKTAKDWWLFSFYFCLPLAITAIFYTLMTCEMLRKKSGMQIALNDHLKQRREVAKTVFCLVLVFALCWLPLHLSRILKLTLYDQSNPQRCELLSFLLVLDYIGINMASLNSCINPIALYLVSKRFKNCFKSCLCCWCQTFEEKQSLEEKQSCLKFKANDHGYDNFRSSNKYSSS
assayMetric: pIC50
Give bare numbers, as −log10 of the molar value.

Record COc1cccc(Oc2c(NS(=O)(=O)c3ccc(C(C)(C)C)cc3)ncnc2OCCO)c1 has Endothelin receptor type B (Rattus norvegicus, UniProt P21451) pIC50 equal to 6.00

###

# target: Endothelin-1 receptor (Homo sapiens, UniProt P25101)
# Sequence (P25101 whole entry): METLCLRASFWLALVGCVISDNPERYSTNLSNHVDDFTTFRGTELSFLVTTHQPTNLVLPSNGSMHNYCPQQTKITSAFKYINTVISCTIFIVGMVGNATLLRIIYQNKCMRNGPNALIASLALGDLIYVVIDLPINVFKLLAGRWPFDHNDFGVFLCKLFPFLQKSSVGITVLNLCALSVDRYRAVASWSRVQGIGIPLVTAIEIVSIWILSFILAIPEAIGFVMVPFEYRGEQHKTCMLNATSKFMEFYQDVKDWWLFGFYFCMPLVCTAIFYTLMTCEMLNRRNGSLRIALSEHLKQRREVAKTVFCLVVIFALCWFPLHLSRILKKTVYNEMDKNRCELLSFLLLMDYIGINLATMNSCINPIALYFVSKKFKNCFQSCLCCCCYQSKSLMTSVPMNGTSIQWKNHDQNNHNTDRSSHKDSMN
# methodNotes: Displacement of 125I-ET1 from ETA receptor (unknown origin) expressed in CHO cells
# Assay type: cell-based
Please respond with reported IC50 for every item in the list.
Numbers only, in nM.

{"compound": "COc1ccccc1Oc1c(NS(=O)(=O)c2ccc(C(C)C)cn2)nc(-c2ccnc(-c3nnn[nH]3)c2)nc1OCCO [TEZOSENTAN]", "observedResult": 18}
{"compound": "COc1ccccc1Oc1c(NS(=O)(=O)c2ccc(C)cn2)nc(-c2ccnc(-c3nnn[nH]3)c2)nc1OCCO [CLAZOSENTAN]", "observedResult": 1.7}

We now examine a further compound.
Kindly note the recorded IC50 for COc1ccccc1Oc1c(NS(=O)(=O)c2ccc(C)cn2)nc(-c2ccncc2)nc1OC [AVOSENTAN] , which is 1.4
